- System: human colon carcinoma HCT116 cells
- protocol_details: Cell proliferation, HCT116 (Example 4)
- Format: cell-based
- test_settings: HCT-116, HCT116, colon cancer, compound in 2-hydroxypropyl-β-cyclodextrin
Give pIC50 for every item shown.
Numbers only, as −log10 of the molar value.

Recorded results for 4 molecules are shown here.
chemical_string: O=c1c(O)cc2cnc(/C=C/c3cc(O)c(O)c(I)c3)sc-2c1O
system: human colon carcinoma HCT116 cells
pIC50: 6.15
//
chemical_string: O=c1c(O)cc2cnc(/C=C/c3cc(O)c(O)cc3Br)sc-2c1O
system: human colon carcinoma HCT116 cells
pIC50: 5.85
//
chemical_string: O=c1c(O)cc2cnc(/C=C/c3ccc(O)c(O)c3Br)sc-2c1O
system: human colon carcinoma HCT116 cells
pIC50: 6.40
//
chemical_string: O=c1c(O)cc2cnc(/C=C/c3cc(O)c(O)c(Br)c3)sc-2c1O
system: human colon carcinoma HCT116 cells
pIC50: 6.30

Consider the record given below.
For `O=c1c(O)c2sc(/C=C/c3cc(O)c(O)c(Br)c3)ncc-2c(Br)c1O` on human colon carcinoma HCT116 cells, measured pIC50 was 6.10

---

- Test system: human bladder carcinoma T24P cells
- protocol_details: Cell proliferation, T24P (Example 4)
- Type: cell-based
- test_settings: compound in 2-hydroxypropyl-β-cyclodextrin
attribute_measured: pIC50
Answers are plain numbers, as −log10 of the molar value.

Dear colleague, could you send me pIC50 for each of the items below? Thanks.
1. O=c1c(O)cc2cnc(/C=C/c3cc(O)c(O)c(I)c3)sc-2c1O
2. O=c1c(O)cc2cnc(/C=C/c3cc(O)c(O)c(Br)c3)sc-2c1O
3. O=c1c(O)cc2cnc(/C=C/c3cc(O)c(O)cc3Br)sc-2c1O

OUT:
1. 5.49
2. 5.22
3. 5.35

Reported pIC50 for `O=c1c(O)cc2cnc(/C=C/c3ccc(O)c(O)c3Br)sc-2c1O` was 5.19

---

I'd appreciate it if you could supply pIC50 values for the items below.
- Tested on: human breast cancer MDA-MB-468 cells
- protocol_details: Cell proliferation, MDA-MB-468 (Example 4)
- Type: cell-based
- test_settings: MDA-MB-468, breast cancer, compound in 2-hydroxypropyl-β-cyclodextrin
Numbers only, as −log10 of the molar value.

chemical_string: O=c1c(O)cc2cnc(/C=C/c3ccc(O)c(O)c3Br)sc-2c1O
measured_value: 5.54
//
chemical_string: O=c1c(O)cc2cnc(/C=C/c3cc(O)c(O)c(Br)c3)sc-2c1O
measured_value: 5.33
//
chemical_string: N#C/C(=C\c1cc(O)c(O)c(I)c1)c1ncc2cc(O)c(=O)c(O)c-2s1
measured_value: 5.92

For record `O=c1c(O)cc2cnc(/C=C/c3cc(O)c(O)c(I)c3)sc-2c1O` the listed pIC50 is 5.66

---

- System: human prostate carcinoma DU145 cells
- protocol_details: Cell proliferation, DU145 (Example 4)
- Assay type: cell-based
- test_settings: DU-145, DU145, prostate cancer, compound in 2-hydroxypropyl-β-cyclodextrin
Kindly state IC50 for each of the entries shown.

State recorded IC50 for all listed compounds.
1. O=c1c(O)cc2cnc(/C=C/c3cc(O)c(O)c(I)c3)sc-2c1O
2. O=c1c(O)cc2cnc(/C=C/c3cc(O)c(O)cc3Br)sc-2c1O
3. O=c1c(O)cc2cnc(/C=C/c3ccc(O)c(O)c3Br)sc-2c1O
4. O=c1c(O)cc2cnc(/C=C/c3cc(O)c(O)c(Br)c3)sc-2c1O

OUT:
["2 µM", "2.3 µM", "2.7 µM", "2.3 µM"]

---

- Test system: human leukemia K562 cells
- protocol_details: Cell proliferation, K562 (Example 4)
- Type: cell-based
- test_settings: compound in 2-hydroxypropyl-β-cyclodextrin
attribute_measured: pIC50
One number for each entry, as −log10 of the molar value.

molecule: O=c1c(O)cc2cnc(/C=C/c3cc(O)c(O)c(I)c3)sc-2c1O [Compound 4]
system: human leukemia K562 cells
pIC50: 6.05
--
molecule: O=c1c(O)c2sc(/C=C/c3cc(O)c(O)c(Br)c3)ncc-2c(Br)c1O [Compound 8]
system: human leukemia K562 cells
pIC50: 6.10
--
molecule: O=c1c(O)cc2cnc(/C=C/c3cc(O)c(O)c(Br)c3)sc-2c1O [Compound 3]
system: human leukemia K562 cells
pIC50: 6.30
--
molecule: O=c1c(O)cc2cnc(/C=C/c3ccc(O)c(O)c3Br)sc-2c1O [Compound 5]
system: human leukemia K562 cells
pIC50: 6.30

Continue with the next molecule.
Lookup result for O=c1c(O)cc2cnc(/C=C/c3cc(O)c(O)cc3Br)sc-2c1O [Compound 7] ; measured pIC50: 5.74

---

- System: human multiple myeloma U266 cells
- protocol_details: Cell proliferation, U266 (Example 4)
- Format: cell-based
- test_settings: U-266, compound in 2-hydroxypropyl-β-cyclodextrin
attribute_measured: pIC50
One number for each entry, as −log10 of the molar value.

According to the records, this compound `O=c1c(O)cc2cnc(/C=C/c3cc(O)c(O)c(Br)c3)sc-2c1O` displays pIC50 of 6.15

---

- System: human myeloma CAG cells
- protocol_details: Cell proliferation, CAG (Example 2)
- Assay type: cell-based
- test_settings: multiple myeloma, 72 hours, 0.1% DMSO, WST-1
attribute_measured: pIC50
Give bare numbers, as −log10 of the molar value.

In plain terms, `O=c1c(O)cc2cnc(/C=C/c3cc(O)c(O)c(Br)c3)sc-2c1O` has a documented pIC50 of 5.92

---

So I've got a bunch of molecules here, and I need their pIC50 values.
- System: human lymphoma KARPAS cells
- protocol_details: Cell proliferation, KARPAS (Example 4)
- Format: cell-based
- test_settings: compound in 2-hydroxypropyl-β-cyclodextrin
Numbers only, as −log10 of the molar value.

For the 2 molecules below, give their pIC50 values.
1. O=c1c(O)cc2cnc(/C=C/c3cc(O)c(O)c(Br)c3)sc-2c1O [Compound 3]
2. O=c1c(O)cc2cnc(/C=C/c3ccc(O)c(O)c3Br)sc-2c1O [Compound 5]

OUT:
[6.30, 6.05]

Provide pIC50 values for the following items, in order.
1. O=c1c(O)cc2cnc(/C=C/c3cc(O)c(O)c(I)c3)sc-2c1O [Compound 4]
2. O=c1c(O)cc2cnc(/C=C/c3cc(O)c(O)cc3Br)sc-2c1O [Compound 7]

OUT:
1: 5.82; 2: 5.74

---

- Tested on: human myeloma RPMI8226 cells
- protocol_details: Cell proliferation, RPMI8226 (Example 2)
- Type: cell-based
- test_settings: RPMI-8226, RPMI8226, multiple myeloma, 72 hours, 0.1% DMSO, WST-1
attribute_measured: IC50

For O=c1c(O)cc2cnc(/C=C/c3cc(O)c(O)c(Br)c3)sc-2c1O [Compound 3] the compound record lists IC50 as 2000 nM

Data provenance: patent US9073880B2
